biological target: second (BD2: amino acids E352-E168) bromodomain of BRD4 (Homo sapiens); construct: protocol; assay: TR-FRET bromodomain binding assay, BRD4 BD2; conditions: TR-FRET assay protocol (A-G, compound concentration range); Ki calculated from IC50, probe Kd and probe concentration; read-out: TR-FRET Binding Ki: BRD4 (BDII_E352-M457)
Consider the following molecules and their measured pKi readings.
pKi field: float, defined as -log10 of concentration (mol/L).

Record excerpt, results attached:
CCN(CC)CC#CCOc1cc(=O)n(C)cc1-c1cc(NS(=O)(=O)CC)ccc1Oc1ccc(F)cc1F ... 7.84
Cc1n[nH]c(C)c1-c1cc(=O)n(C)nc1-c1ccccc1Oc1ccccc1 ... 5.16
Cn1cc(-c2cc(NS(C)(=O)=O)ccc2OC2CCCCC2)ccc1=O ... 6.71
CCOc1cc(=O)n(C)cc1-c1cc(S(=O)(=O)C2CC2)ccc1Oc1ccc(F)cc1F ... 8.64
CCOc1cc(=O)n(C)cc1-c1cc(S(=O)(=O)CC)ccc1OCC1CC1(F)F (stereo not shown) ... 7.54

Could you now consider this next molecule?
Reported pKi, molecule `CC(=O)NCc1ccc(-c2cc(=O)n(C)nc2-c2ccccc2Oc2ccccc2)cc1` : ____ 7.23

* * *

biological target: first (BD1: amino acids K57-E168) bromodomain of BRD4 (Homo sapiens, UniProt O60885); construct: His-tagged first (BD1: amino acids K57-E168); test: TR-FRET bromodomain binding assay, BRD4 BD1; conditions: TR-FRET assay protocol (D, E or G) per compound; Ki calculated from IC50, probe Kd and probe concentration; read-out: TR-FRET Binding Ki: BRD4 (BDI_K57-E168)
Ki strictly less than 100 nM = 1. Otherwise -1.

Some solved cases for reference:
CCOc1cc(=O)n(C)cc1-c1cc(NS(=O)(=O)CC)ccc1OC1CCN(C(C)=O)CC1 [Example 389] ... -1
CCS(=O)(=O)c1ccc(Oc2ccc(F)cc2F)c(-c2cn(C)c(=O)cc2Cl)c1 [Example 382] ... -1

hey, is Ki for CCS(=O)(=O)c1ccc(Oc2ccc(F)cc2F)c(-c2cn(C)c(=O)cc2OCC(F)(F)F)c1 [Example 398] lower than 100 nM or not? -1

hey, is Ki for CCOc1cc(=O)n(C)cc1-c1cc(NS(=O)(=O)c2ccc(Cl)cc2Cl)ccc1Oc1ccc(F)cc1F [Example 417] lower than 100 nM or not? -1

hey, is Ki for CCOc1cc(=O)n(C)cc1-c1cc(NS(=O)(=O)CC)ccc1Oc1ccc(F)cc1 [Example 396] lower than 100 nM or not? 1

hey, is Ki for CCOc1cc(=O)n(C)cc1-c1cc(NS(=O)(=O)CC)ccc1Oc1ccc(C#N)cc1F [Example 408] lower than 100 nM or not? 1

hey, is Ki for CCOc1cc(=O)n(C)cc1-c1cc(NS(=O)(=O)CC)ccc1OC1Cc2ccccc2C1 [Example 394] lower than 100 nM or not? -1

hey, is Ki for CCOc1cc(=O)n(C)cc1-c1cc(S(=O)(=O)CC)ccc1Oc1ccc(F)cc1F [Example 375] lower than 100 nM or not? 1

hey, is Ki for CCS(=O)(=O)Nc1ccc(Oc2ccc(F)cc2F)c(-c2cn(C)c(=O)cc2-c2ccc(C)s2)c1 [Example 407] lower than 100 nM or not? 1

hey, is Ki for CCOc1cc(=O)n(C)cc1-c1cc(S(=O)(=O)CC)ccc1NC1CC1 [Example 373] lower than 100 nM or not? -1

* * *

target: second (BD2: amino acids E352-E168) bromodomain of BRD4 (Homo sapiens, UniProt O60885); construct: protocol; assay: TR-FRET bromodomain binding assay, BRD4 BD2; settings: TR-FRET assay protocol (A-G, compound concentration range); Ki calculated from IC50, probe Kd and probe concentration; read-out: TR-FRET Binding Ki: BRD4 (BDII_E352-M457)
test-readout: log10 of Ki (log10 of the value in nM)
A value of 2 here means Ki of 100 in nM, since values are log10.

Cn1nc(-c2ccccc2Oc2ccccc2)c(-c2ccc(C(O)c3ccccc3)cc2)cc1=O (stereo not drawn) ... 3.11

Reported log10 of Ki, molecule `Cn1cc(-c2cc(NS(C)(=O)=O)ccc2Oc2ccccc2F)ccc1=O` : ____ 1.60

Reported log10 of Ki, molecule `Cn1cc(-c2cc(NS(C)(=O)=O)ccc2Oc2cccc(C(F)(F)F)c2)ccc1=O` : ____ 2.45

Reported log10 of Ki, molecule `CCOc1cncc(-c2cc(=O)n(C)nc2-c2ccccc2Oc2ccccc2)c1` : ____ 3.38

Reported log10 of Ki, molecule `COc1cc(=O)n(C)nc1-c1cc(NS(=O)(=O)N(C)C)ccc1Oc1ccccc1` : ____ 1.67

Reported log10 of Ki, molecule `CCS(=O)(=O)Nc1ccc(Oc2ccc(F)cc2F)c(-c2cn(C)c(=O)cc2OC2CC3(C2)CN(C(=O)OC(C)(C)C)C3)c1` : ____ 1.33

* * *

Molecular target: second (BD2: amino acids E352-E168) bromodomain of BRD4 (Homo sapiens)
Construct: protocol
Assay: TR-FRET bromodomain binding assay, BRD4 BD2
Settings: TR-FRET assay protocol (A-G, compound concentration range); Ki calculated from IC50, probe Kd and probe concentration; read-out: TR-FRET Binding Ki: BRD4 (BDII_E352-M457)
Protocol: A time-resolved fluorescence resonance energy transfer (TR-FRET) assay was used to determine the affinities of compounds of the Examples listed in Table 1 for each bromodomain of BRD4. […] TR-FRET data were normalized to the means of 24 no-compound controls (“high”) and 8 controls containing 1 μM un-labeled probe (“low”). […] Inhibition constants (Ki) were calculated from the IC50s, probe Kd and probe concentration. […]
Ki strictly less than 800 nM = YES. Otherwise NO.

Some solved cases for reference:
CCOc1cc(=O)n(C)cc1-c1cc(S(=O)(=O)C(C)C)ccc1Oc1ccc(F)cc1F [Example 369] ... YES
Cc1cc(-c2ccc(-c3ccc(=O)n(C)c3)c(OCC3CC3)c2)[nH]n1 [Example 312] ... NO
Cn1cc(-c2cc(NS(C)(=O)=O)ccc2OCC2CCOCC2)ccc1=O [Example 250] ... NO
Cn1cc(-c2cc(NS(C)(=O)=O)ccc2Oc2ccc(F)cc2)ccc1=O [Example 232] ... YES
Cn1nc(-c2ccccc2Oc2ccccc2)c(-c2ccc(CN3CCCC3)cc2)cc1=O [Example 71] ... YES

hey, is Ki for CCS(=O)(=O)Nc1ccc(Oc2ccc(F)cc2F)c(-c2ccc(=O)n(C)c2)c1 [Example 241] lower than 800 nM or not? YES

hey, is Ki for Cn1nc(-c2ccccc2Oc2ccccc2)c(-c2ccc(S(N)(=O)=O)cc2)cc1=O [Example 112] lower than 800 nM or not? YES

hey, is Ki for Cn1nc(-c2ccccc2Oc2ccccc2)c(C2CCN(S(C)(=O)=O)CC2)cc1=O [Example 90] lower than 800 nM or not? NO

hey, is Ki for CC(C)CCn1cc(-c2cc(=O)n(C)nc2-c2ccccc2Oc2ccccc2)cn1 [Example 129] lower than 800 nM or not? YES

* * *

Consider the following compounds and their measured Ki readings.
molecular target: second (BD2: amino acids E352-E168) bromodomain of BRD4 (Homo sapiens); construct: protocol; test: TR-FRET bromodomain binding assay, BRD4 BD2; details: TR-FRET assay protocol (A-G, compound concentration range); Ki calculated from IC50, probe Kd and probe concentration; read-out: TR-FRET Binding Ki: BRD4 (BDII_E352-M457)
Report as a plain number; the unit nM is understood.

Record excerpt, results attached:
CCNc1cc(=O)n(C)cc1-c1cc(NS(=O)(=O)CC)ccc1Oc1ccc(F)cc1F ... 1.53
CN1CCN(c2cc(-c3cc(=O)n(C)nc3-c3ccccc3Oc3ccccc3)ccn2)CC1 ... 764

Reported Ki, compound `CCCS(=O)(=O)Nc1ccc(Oc2ccccc2)c(-c2nn(C)c(=O)cc2OC)c1` : ____ 108

* * *

Target: first (BD1: amino acids K57-E168) bromodomain of BRD4 (Homo sapiens, UniProt O60885)
Construct: His-tagged first (BD1: amino acids K57-E168)
Assay: TR-FRET bromodomain binding assay, BRD4 BD1
Details: TR-FRET assay protocol (A-G, compound concentration range); Ki calculated from IC50, probe Kd and probe concentration; read-out: TR-FRET Binding Ki: BRD4 (BDI_K57-E168)
Protocol: A time-resolved fluorescence resonance energy transfer (TR-FRET) assay was used to determine the affinities of compounds of the Examples listed in Table 1 for each bromodomain of BRD4. […] TR-FRET data were normalized to the means of 24 no-compound controls (“high”) and 8 controls containing 1 μM un-labeled probe (“low”). […] Inhibition constants (Ki) were calculated from the IC50s, probe Kd and probe concentration. […]
Consider the following compounds and their measured Ki readings.
Report as a plain number; the unit nM is understood.

Record excerpt, results attached:
Cn1cnc(S(=O)(=O)Nc2ccc(Oc3ccccc3)c(-c3ccc(=O)n(C)c3)c2)c1 ... 157
CCS(=O)(=O)c1ccc(OCC2CC2)c(-c2cc(N)c(=O)n(C)c2)c1 ... 159

Could you now consider this next compound?
Reported Ki, compound `COC(=O)CS(=O)(=O)Nc1ccc(Oc2ccccc2)c(-c2ccc(=O)n(C)c2)c1` : ____ 152

Measured values drawn from patent US9561231B2 for this set.
